- System: A549 cells
- experiment.summary: Cytotoxicity against A549 cells, Alamar Blue
- Type: cell-based
- assay.context: Homo sapiens, A549, 65 h; Supplementary Table 1; compound 0.5 mM; percentage of controls (n=1)
- Procedure: Cytotoxic effects against HeLa and A549 cells were determined in a similar manner. Briefly, the cells were cultured in DMEM supplemented with 10% FCS and 2 mM L-Glutamine. Cells were plated at initial cell concentration of 2 × 10^4 cells/well and incubated with the compounds for ~65 hours prior to addition of Alamar Blue solution for a further 5 hours.
Reported viability at 500 µM values for the following compounds.
quantity: viability at 500 µM (%)

>>> assay_result("CCOC(=O)c1[nH]c(C)cc1C [compound 330]")
156
>>> assay_result("COC(=O)CSc1ccccc1 [compound 466, methyl 2‐(phenylthio)acetate]")
84.7
>>> assay_result("NC(=S)COc1cccc(Cl)c1 [compound 633, 2‐(3‐chlorophenoxy)ethanethioamide]")
90.3
>>> assay_result("CN(C(N)=S)c1ccccc1 [compound 325, N‐methyl‐N‐phenylthiourea]")
82.7
>>> assay_result("OCc1nc2ccccc2[nH]1 [compound 169, 1H‐benzimidazol‐2‐ylmethanol]")
81.7
>>> assay_result("CC(=O)c1ccc(S(C)(=O)=O)cc1 [compound 604, 1‐[4‐(methylsulfonyl)phenyl]ethan‐1‐one]")
63.9
>>> assay_result("COC(=O)c1cccc(N)c1 [compound 194, methyl 3‐aminobenzoate]")
38.9
>>> assay_result("Cn1nccc1N [compound 7, 1‐methyl‐1H‐pyrazol‐5‐ylamine]")
124
>>> assay_result("NC(=O)c1ccccc1C(F)(F)F [compound 532, 2‐(trifluoromethyl)benzamide]")
59.4

* * *

Reported viability at 500 µM values for the following compounds.
- Test system: A549 cells
- experiment.summary: Cytotoxicity against A549 cells, Alamar Blue
- Format: cell-based
- assay.context: Homo sapiens, A549, 65 h; Supplementary Table 1; compound 0.5 mM; percentage of controls (n=1)
quantity: viability at 500 µM (%)

>>> assay_result("ON=C1CCCCCN1")
115
>>> assay_result("c1cncc(Cn2cccc2)c1")
86.6
>>> assay_result("OCc1ccccc1N1CCOCC1")
123
>>> assay_result("Nc1ccc(F)cc1F")
132
>>> assay_result("O=C(O)CCc1c[nH]c2ccccc12")
67.2
>>> assay_result("c1cnc2c(c1)OCCN2 [compound 118, 3,4‐dihydro‐2H‐pyrido[3,2‐b][1,4]oxazine]")
92.3
>>> assay_result("Nc1ccc(CO)cn1")
85.1
>>> assay_result("O=C(O)c1ccc2ncsc2c1")
63.5
>>> assay_result("COC(=O)Cc1ccsc1 [compound 238, methyl 2‐(3‐thienyl)acetate]")
64.7

* * *

Reported viability at 500 µM values for the following molecules.
- Tested on: A549 cells
- experiment.summary: Cytotoxicity against A549 cells, Alamar Blue
- Format: cell-based
- assay.context: Homo sapiens, A549, 65 h; Supplementary Table 1; compound 0.5 mM; percentage of controls (n=1)
quantity: viability at 500 µM (%)

>>> assay_result("Cc1cc(CO)nn1C")
100
>>> assay_result("c1ccc2c(c1)CCOC2 [compound 110, 3,4‐dihydro‐1H‐benzo[c]pyran]")
114
>>> assay_result("CCOC(=O)Cc1csc(C)n1")
120
>>> assay_result("O=C1CCOc2ccc(F)cc21")
99
>>> assay_result("OCCc1coc2ccccc12 [compound 284, 2‐benzo[b]furan‐3‐ylethanol]")
63.3
>>> assay_result("Cc1ccc(CN)cc1Cl")
163
>>> assay_result("Cc1ccc(C(=O)O)cc1Cl")
112
>>> assay_result("Nc1ccc(-c2cccnc2)cc1")
113
>>> assay_result("Nc1nc(-c2ccccc2)ns1")
52.7

Values from paper PMC3199943
